Just for reference, ChEMBL document CHEMBL3862033 is where these values come from.

- TEST TARGET: UniProt:P46098
- Sequence (P46098 whole entry): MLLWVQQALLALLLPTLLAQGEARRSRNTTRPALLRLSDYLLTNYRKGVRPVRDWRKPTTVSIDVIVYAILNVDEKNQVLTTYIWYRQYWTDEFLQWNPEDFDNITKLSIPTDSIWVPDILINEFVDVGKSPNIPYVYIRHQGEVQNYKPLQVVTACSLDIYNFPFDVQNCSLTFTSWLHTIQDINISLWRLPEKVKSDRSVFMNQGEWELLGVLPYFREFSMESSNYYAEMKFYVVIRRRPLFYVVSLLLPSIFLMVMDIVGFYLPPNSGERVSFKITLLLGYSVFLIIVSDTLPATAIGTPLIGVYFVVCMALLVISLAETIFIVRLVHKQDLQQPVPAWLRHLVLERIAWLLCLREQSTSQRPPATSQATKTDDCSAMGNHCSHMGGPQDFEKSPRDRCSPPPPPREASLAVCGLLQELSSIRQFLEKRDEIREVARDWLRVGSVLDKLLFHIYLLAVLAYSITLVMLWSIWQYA
- PROCEDURE SUMMARY: Displacement of [3H]GR65630 from human 5-HT3 receptor expressed in HEK-T cell membranes incubated for 90 mins under dark condition by microbeta scintillation counting method
PARAMETER: pKi
Just so you know, pKi here is -log10 of the concentration in molar units; reply with that number alone.

Entry O[C@@H]1[C@H](O)[C@@H]2C[C@@H]2[C@H]1n1cnc2c(NCc3cccc(Cl)c3)nc(Cl)nc21 ; pKi = 5.49

----------
- TEST TARGET: Cytochrome P450 1A2 (Homo sapiens)
- Sequence (P05177 whole entry): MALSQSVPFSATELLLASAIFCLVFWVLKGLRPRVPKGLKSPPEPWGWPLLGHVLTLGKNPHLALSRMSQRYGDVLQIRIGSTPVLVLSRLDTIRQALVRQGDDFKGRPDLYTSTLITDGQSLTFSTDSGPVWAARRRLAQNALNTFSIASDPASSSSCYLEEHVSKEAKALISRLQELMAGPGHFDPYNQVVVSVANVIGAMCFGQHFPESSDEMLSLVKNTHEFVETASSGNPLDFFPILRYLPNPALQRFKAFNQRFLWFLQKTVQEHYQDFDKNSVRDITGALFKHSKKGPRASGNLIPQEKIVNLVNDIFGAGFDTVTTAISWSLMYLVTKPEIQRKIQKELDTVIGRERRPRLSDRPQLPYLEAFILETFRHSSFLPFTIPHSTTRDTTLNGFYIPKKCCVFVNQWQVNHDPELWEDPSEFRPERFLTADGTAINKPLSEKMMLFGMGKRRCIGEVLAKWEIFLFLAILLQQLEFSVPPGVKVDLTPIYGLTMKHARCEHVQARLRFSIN
pIC50: −log10 of the molar value.
PARAMETER: pIC50

Lab book: pIC50 of CNC(=O)[C@@]12C[C@@H]1[C@@H](n1cnc3c(NC(C4CC4)C4CC4)nc(Cl)nc31)[C@H](O)[C@@H]2O noted as < 4.52

----------
- TEST TARGET: 5-hydroxytryptamine receptor 4 (Homo sapiens)
- PROCEDURE SUMMARY: Displacement of [3H]GR113808 from human 5-HT4 receptor at 10 uM incubated for 90 mins under dark condition by microbeta scintillation counting method relative to control
PARAMETER: inhibition

Measured inhibition, CC[C@@H](Nc1nc(Cl)nc2c1ncn2[C@H]1[C@H](O)[C@H](O)[C@]2(CO)C[C@H]12)C1CC1 : < 50%

Value of inhibition reported for the compound CN(C)c1nc(Cl)nc2c1ncn2[C@H]1[C@H](O)[C@H](O)[C@]2(C(=O)O)C[C@H]12 is < 50%

Entry CNC(=O)[C@@]12C[C@@H]1[C@@H](n1cnc3c(NC(C4CC4)C4CC4)nc(Cl)nc31)[C@H](O)[C@@H]2O ; inhibition = < 50%

# inhibition (compound: CNc1nc(Cl)nc2c1ncn2[C@H]1[C@H](O)[C@H](O)[C@]2(CO)C[C@H]12 ) is < 50%

get_value(item= CCNC(=O)[C@H]1O[C@@H](n2cnc3c(N)ncnc32)[C@H](O)[C@@H]1O [NECA] , readout=inhibition) returns < 50%

Notebook: CC[C@H](Nc1nc(Cl)nc2c1ncn2[C@H]1[C@H](O)[C@H](O)[C@]2(CO)C[C@H]12)C1CC1 , inhibition read as < 50%

Form field inhibition, entry Nc1nc(Cl)nc2c1ncn2[C@H]1[C@H](O)[C@H](O)[C@]2(CO)C[C@H]12 : < 50%

Lab book: inhibition of OC[C@@]12C[C@@H]1[C@@H](n1cnc3c(N[C@@H](C4CCC4)C4CC4)nc(Cl)nc31)[C@H](O)[C@@H]2O noted as < 50%
